system_under_test: human 5-HT5A receptor (Homo sapiens, UniProt P47898)
Construct: expressed in transfected cells; membrane preparation
Sequence (P47898 whole entry): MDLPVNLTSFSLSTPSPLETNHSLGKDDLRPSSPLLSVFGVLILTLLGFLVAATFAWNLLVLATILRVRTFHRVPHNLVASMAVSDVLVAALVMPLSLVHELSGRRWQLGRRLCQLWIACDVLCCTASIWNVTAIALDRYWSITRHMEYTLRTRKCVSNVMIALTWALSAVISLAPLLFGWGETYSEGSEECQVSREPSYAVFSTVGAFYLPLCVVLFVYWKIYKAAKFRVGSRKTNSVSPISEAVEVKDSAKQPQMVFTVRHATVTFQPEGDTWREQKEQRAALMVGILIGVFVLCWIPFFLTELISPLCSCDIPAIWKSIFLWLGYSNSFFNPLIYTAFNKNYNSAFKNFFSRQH
test_name: Test of human 5-HT5A receptor binding inhibition ([3H]5-CT, HEK293 cell membrane)
experimental_setup: [3H]5-CT binding, membrane of HEK293 cell expressing human 5-HT5A receptor
Method: An ORF of a human 5-HT5A receptor (Genbank AF498985) was cloned from a human hippocampal cDNA library, and then inserted into a pCR2.1 vector (Invitrogen), and Escherichia coli having the plasmid was mass cultured. Next, the human 5-HT5A receptor full-length cDNA sequence was analyzed, recombined into a pCDNA3.1 vector (Invitrogen) as an expression vector, and mass cultured. […]
pKi: −log10 of the molar value. Where a name gives a salt, the structure may show the parent alone.
test_readout: pKi

compound	test_readout	observed_measurement
NC(N)=NC(=O)C1CCc2c(n(-c3ccccc3)c3ccccc23)C1 (stereo not shown) [Example 220]	pKi	≥ 7.30
N/C(=N\C(=O)c1ccc2c3ccccc3n(C3CCOCC3)c2c1)Nc1ccccc1 [Example 181]	pKi	≥ 7.30
CC(C)S(=O)(=O)n1c2ccccc2c2ccc(C(=O)N=C(N)N)cc21 [Example 28]	pKi	8.35
CC(C)n1c2cc(C(=O)N=C(N)N)ccc2c2c(CO)cccc21 [Example 65]	pKi	≥ 7.30
NC(N)=NC(=O)c1cc(F)c2c3c(F)cccc3n(C3CCOCC3)c2c1 [Example 146]	pKi	≥ 7.30
NC(N)=NC(=O)c1cc(F)c2c3ccccc3n(C3CCOCC3)c2c1 [Example 11, hydrochloride]	pKi	≥ 7.30
CN/C(N)=N/C(=O)c1ccc2c3ccccc3n(C3CCOCC3)c2c1 [Example 120]	pKi	8.66
CC(C)C(=O)n1c2ccccc2c2ccc(C(=O)N=C(N)N)cc21 [Example 27]	pKi	9.18
NC(N)=NC(=O)c1ccc2c3ccccc3n(Cc3ccc(F)s3)c2c1 [Example 116]	pKi	≥ 7.30
N/C(=N\C(=O)c1ccc2c3ccccc3n(C3CCOCC3)c2c1)NC1CC1 [Example 164]	pKi	≥ 7.30
CC(C)N/C(N)=N\C(=O)c1ccc2c3ccccc3n(C3CCOCC3)c2c1 [Example 149]	pKi	≥ 7.30
NC(N)=NC(=O)c1ccc2c3ccccc3n(-c3ccccn3)c2c1 [Example 102]	pKi	8.28
NC(N)=NC(=O)c1ccc2c3ccccc3n([C@H]3CC[C@@H](F)CC3)c2c1 [Example 143]	pKi	≥ 7.30
NC(N)=NC(=O)c1ccc2c3ccccc3n(C3CCOCC3)c2c1 [Example 25]	pKi	9.29
CSc1cccc2c1c1ccc(C(=O)N=C(N)N)cc1n2C1CCOCC1 [Example 147]	pKi	≥ 7.30
N/C(=N\C(=O)c1ccc2c3ccccc3n(C3CCOCC3)c2c1)NCC1CCCC1 [Example 205]	pKi	≥ 7.30

From: patent US20100324017A1
